target.of.assay: hCPT2 (Homo sapiens, UniProt P23786)
Sequence (P23786 26-658): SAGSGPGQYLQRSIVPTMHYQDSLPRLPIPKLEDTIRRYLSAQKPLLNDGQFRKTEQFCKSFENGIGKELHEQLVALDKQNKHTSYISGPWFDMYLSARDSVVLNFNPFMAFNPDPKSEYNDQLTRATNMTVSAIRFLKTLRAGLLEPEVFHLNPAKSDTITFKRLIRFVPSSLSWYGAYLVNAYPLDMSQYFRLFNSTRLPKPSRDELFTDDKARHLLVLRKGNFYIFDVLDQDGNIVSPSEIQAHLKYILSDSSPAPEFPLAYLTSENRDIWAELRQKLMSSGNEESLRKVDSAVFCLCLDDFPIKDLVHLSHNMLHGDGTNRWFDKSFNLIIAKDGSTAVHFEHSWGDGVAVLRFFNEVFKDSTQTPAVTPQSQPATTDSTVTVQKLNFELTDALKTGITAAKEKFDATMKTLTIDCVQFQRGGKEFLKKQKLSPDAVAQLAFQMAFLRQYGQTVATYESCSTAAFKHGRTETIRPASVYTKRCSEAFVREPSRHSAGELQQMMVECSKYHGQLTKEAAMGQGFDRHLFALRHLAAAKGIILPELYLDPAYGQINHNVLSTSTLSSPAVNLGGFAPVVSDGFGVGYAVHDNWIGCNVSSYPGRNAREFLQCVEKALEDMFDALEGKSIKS
assay.method.text: CPT2 inhibition, spectrophotometric DTNB (Ellman's reagent) assay
protocol.conditions: human CPT2 expressed in P. pastoris, cell extract; carnitine 500 μM, palmitoyl-CoA 80 μM, DTNB 300 μM
metric: log10 IC50 (log10 of the value in nM)

INSERT INTO measurements (molecule, metric, measured) VALUES
  ('CN(C)C[C@@H](CC(=O)O)NC(=O)CCCCCCCOCc1ccc(C(F)(F)F)cc1F [Example 10]', 'log10 IC50', 2.84),
  ('CN(C)C[C@@H](CC(=O)O)NC(=O)CCCCCCCOCc1ccc(C(F)(F)F)c(F)c1 [Example 7]', 'log10 IC50', 2.77),
  ('CN(C)C[C@@H](CC(=O)O)NC(=O)CCCCCCCCOc1ccc(F)c(F)c1 [Example 23]', 'log10 IC50', 1.85),
  ('CN(C)C[C@@H](CC(=O)O)NC(=O)CCCCCCCOCc1ccc(C(F)(F)F)cc1 [Example 6]', 'log10 IC50', 2.28),
  ('CN(C)C[C@@H](CC(=O)O)NC(=O)CCCCCCCCOc1ccc(F)cc1 [Example 20]', 'log10 IC50', 1.32),
  ('CN(C)C[C@@H](CC(=O)O)NC(=O)CCCCCCCOCc1ccccc1 [Example 17]', 'log10 IC50', 3.19),
  ('CN(C)C[C@@H](CC(=O)O)NC(=O)CCCCCCCCOc1cccc2ccccc12 [Example 29]', 'log10 IC50', 2.20),
  ('CN(C)C[C@@H](CC(=O)O)NC(=O)CCCCCCCOCc1ccc(-c2ccccc2)cc1 [Example 9]', 'log10 IC50', 0.30),
  ('CN(C)C[C@@H](CC(=O)O)NC(=O)CCCCCCCOCCOc1ccccc1 [Example 56]', 'log10 IC50', 2.00),
  ('COc1ccc(CCCCCCCCCC(=O)N[C@H](CC(=O)O)CN(C)C)cc1 [Example 38]', 'log10 IC50', 1.23);

---

target.of.assay: hL-CPT1 (Homo sapiens, UniProt P50416)
Sequence (P50416 whole entry): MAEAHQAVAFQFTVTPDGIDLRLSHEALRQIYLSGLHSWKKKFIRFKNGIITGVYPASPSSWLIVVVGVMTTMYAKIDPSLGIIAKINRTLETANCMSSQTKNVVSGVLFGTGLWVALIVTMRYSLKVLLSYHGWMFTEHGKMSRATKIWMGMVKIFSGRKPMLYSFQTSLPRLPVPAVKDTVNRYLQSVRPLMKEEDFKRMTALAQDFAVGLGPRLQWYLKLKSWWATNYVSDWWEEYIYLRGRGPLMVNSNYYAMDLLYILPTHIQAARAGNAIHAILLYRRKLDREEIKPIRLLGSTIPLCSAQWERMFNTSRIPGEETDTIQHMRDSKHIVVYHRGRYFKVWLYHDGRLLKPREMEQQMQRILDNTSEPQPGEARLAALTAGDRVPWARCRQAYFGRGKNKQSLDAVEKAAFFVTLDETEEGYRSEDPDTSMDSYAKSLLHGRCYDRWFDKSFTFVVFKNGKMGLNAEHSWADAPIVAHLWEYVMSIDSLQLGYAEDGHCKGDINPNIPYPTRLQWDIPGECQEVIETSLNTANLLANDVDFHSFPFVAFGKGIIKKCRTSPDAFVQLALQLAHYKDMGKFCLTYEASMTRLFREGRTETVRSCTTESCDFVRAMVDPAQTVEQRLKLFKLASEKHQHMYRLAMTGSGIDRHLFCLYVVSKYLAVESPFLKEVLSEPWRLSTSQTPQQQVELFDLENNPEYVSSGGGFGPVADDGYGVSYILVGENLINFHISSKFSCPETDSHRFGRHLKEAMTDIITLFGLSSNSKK
assay.method.text: liver CPT1 inhibition, spectrophotometric DTNB (Ellman's reagent) assay
protocol.conditions: human liver CPT1 expressed in P. pastoris, cell extract; carnitine 500 μM, palmitoyl-CoA 80 μM, DTNB 300 μM
pIC50: −log10 of the molar value.
metric: pIC50

INSERT INTO assay_data (structure, lt_gt_eq, measured) VALUES
  ('CN(C)C[C@@H](CC(=O)O)NC(=O)CCCCCCCOCc1ccc(-c2ccccc2)cc1', '=', 5.24),
  ('CN(C)C[C@@H](CC(=O)O)NC(=O)CCCCCCCCCc1ccccc1', '=', 5.15),
  ('COc1ccc(OCCCCCCCCC(=O)N[C@H](CC(=O)O)CN(C)C)cc1OC', '=', 5.94),
  ('CN(C)C[C@@H](CC(=O)O)NC(=O)CCCCCCCOCc1ccc(C(F)(F)F)cc1F', '<', 5.00),
  ('CN(C)C[C@@H](CC(=O)O)NC(=O)CCCCCCCOCc1ccc(C(F)(F)F)cc1', '<', 5.00),
  ('CN(C)C[C@@H](CC(=O)O)NC(=O)CCCCCCCOCc1ccc(F)cc1', '=', 5.18),
  ('CN(C)C[C@@H](CC(=O)O)NC(=O)CCCCCCCCCc1ccc(F)cc1', '=', 5.36),
  ('CN(C)C[C@@H](CC(=O)O)NC(=O)CCCCCCCCOc1ccc(-c2ccccc2)cc1', '=', 5.83);

---

target.of.assay: hL-CPT1 (Homo sapiens)
assay.method.text: liver CPT1 inhibition, spectrophotometric DTNB (Ellman's reagent) assay
protocol.conditions: human liver CPT1 expressed in P. pastoris, cell extract; carnitine 500 μM, palmitoyl-CoA 80 μM, DTNB 300 μM
pIC50: −log10 of the molar value.
metric: pIC50

INSERT INTO measurements (structure, lt_gt_eq, measured) VALUES
  ('COc1ccc(CCCCCCCCCC(=O)N[C@H](CC(=O)O)CN(C)C)cc1', '=', 5.16),
  ('CN(C)C[C@@H](CC(=O)O)NC(=O)CCCCCCCOCc1cccc2ccccc12', '<', 5.00),
  ('CN(C)C[C@@H](CC(=O)O)NC(=O)CCCCCCCCCCCc1ccccc1', '=', 5.97),
  ('CN(C)C[C@@H](CC(=O)O)NC(=O)CCCCCCCOCc1ccc(F)c(F)c1', '=', 5.11),
  ('CN(C)C[C@@H](CC(=O)O)NC(=O)CCCCCCCCOc1ccc(F)cc1F', '=', 5.06),
  ('CN(C)C[C@@H](CC(=O)O)NC(=O)CCCCCCCCOc1cccc(F)c1', '=', 5.63),
  ('CN(C)C[C@H](CC(=O)O)NC(=O)CCCCCCCCCc1ccccc1', '<', 5.00);
